kon listing for selected binders.
Molecular target: T1, Human CD19-his protein (human, UniProt P15391 20-291)
T1 construct: bought protein; also called recombinant human CD19-His; CD19 full-length protein; not shown: His tag
T1 sequence (looked up): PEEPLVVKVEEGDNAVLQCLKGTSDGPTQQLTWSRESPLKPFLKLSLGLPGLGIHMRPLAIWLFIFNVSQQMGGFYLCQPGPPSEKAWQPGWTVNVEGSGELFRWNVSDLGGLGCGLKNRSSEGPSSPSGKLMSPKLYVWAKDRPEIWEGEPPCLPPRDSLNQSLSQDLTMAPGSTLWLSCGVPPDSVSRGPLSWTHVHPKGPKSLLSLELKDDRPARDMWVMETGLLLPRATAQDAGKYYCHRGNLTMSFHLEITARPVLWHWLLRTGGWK
Experiment: SPR Biacore, Ab captured on Protein A, CD19-His analyte

IN: I am curious: what kon value has been reported for F4.15.9 (antibody, human IgG1, V domains shown, human-murine chimeric antibody, human IgG1 constant) VH: QVQLQQSGPELVKPGASVKISCKASGYAFSSSWMNWLKQRPGQGLEWIGRIYPGDGDTNYNGKFKGKATLTADESSSTAYMQLSSLTSVDSAVYFCARGITTIITIAWFASWGQGTLVTVSA VL: QIVLSQSPTILSASPGEKVTMTCRASSSVSYMHWYQQKPGSSPKPWIYATSNLASGVPPRFSGSGSGTSYSLTISRVGAEDAATYYCQQWSSDPWTFGGGTKLEIK ?
OUT: 348000 M⁻¹ s⁻¹

IN: I am curious: what kon value has been reported for F6.12.12 (antibody, human IgG1, V domains shown, human-murine chimeric antibody, human IgG1 constant) VH: DVQLQESGPGLVKPSQSLSLTCSVTGYSITSGYYWIWIRQFPGNKLEWMGYISYDASNKYKPSLKNRISITRDTSKNQFFLKLNSVTAEDTATYFCAREDLRGYFDVWGTGTSVTVSS VL: DIVLTQSPASLAVSLGRRATISCRASQSVSTSGFSYMHWYQQKPGQPPNLLIKYASILQSGVPARFSGSGSGTDFILNIHPVEDVDTATYYCQHSWGIPFTFGSGTKLEIK ?
OUT: 167000 M⁻¹ s⁻¹

IN: I am curious: what kon value has been reported for F5.2.9 (antibody, human IgG1, V domains shown, human-murine chimeric antibody, human IgG1 constant) VH: QVTLKESGPGILQPSQTLSLTCSFSGFSLSTFGLGVGWVRQPSGKGLEWLAHIWWDDDKYYNPALKSRVTVSKETSKNQVFFKIANVDTADSATYYCARLSRGLRRDVVYAMDHWGQGTSVTVSS VL: DIQMTQTTSSLSASLGDRVTISCRASQDISNYLNWYQQKPDGSVKLLISYVSRLQSGVPSRFRGSGSGTDYSLTISNLDQEDIATYFCQQGIAFPYTFGGGTKLDIK ?
OUT: 25700 M⁻¹ s⁻¹

IN: I am curious: what kon value has been reported for F4.96.6 (antibody, human IgG1, V domains shown, human-murine chimeric antibody, human IgG1 constant) VH: EIQLQQSGPELVKPGASVKVSCKASGYAFSAYNIYWVKQSHGKSLEWIGYIDPYNSGTTYNQKFRGKATLTVDKSSNTAYMHLSSLTSEDSAVYYCTRDGDAMDYWGQGTSVTVSS VL: EILLTQSPAIIAASPGEKVTITCSASSGVIYMNWYQQKPGSSPKIWIYDVSTLASGVPARFSGSGSGTSFSFTINSMEAEDVATYYCQQRSSYPYTFGGGTKLEIK ?
OUT: 247000 M⁻¹ s⁻¹
